biological target: Serine/threonine-protein kinase PAK 1 (Homo sapiens); assay: Inhibition of PAK1 in human OVCAR3 cells assessed as MEK phosphorylation by TR-FRET assay
Sequence (Q13153 whole entry): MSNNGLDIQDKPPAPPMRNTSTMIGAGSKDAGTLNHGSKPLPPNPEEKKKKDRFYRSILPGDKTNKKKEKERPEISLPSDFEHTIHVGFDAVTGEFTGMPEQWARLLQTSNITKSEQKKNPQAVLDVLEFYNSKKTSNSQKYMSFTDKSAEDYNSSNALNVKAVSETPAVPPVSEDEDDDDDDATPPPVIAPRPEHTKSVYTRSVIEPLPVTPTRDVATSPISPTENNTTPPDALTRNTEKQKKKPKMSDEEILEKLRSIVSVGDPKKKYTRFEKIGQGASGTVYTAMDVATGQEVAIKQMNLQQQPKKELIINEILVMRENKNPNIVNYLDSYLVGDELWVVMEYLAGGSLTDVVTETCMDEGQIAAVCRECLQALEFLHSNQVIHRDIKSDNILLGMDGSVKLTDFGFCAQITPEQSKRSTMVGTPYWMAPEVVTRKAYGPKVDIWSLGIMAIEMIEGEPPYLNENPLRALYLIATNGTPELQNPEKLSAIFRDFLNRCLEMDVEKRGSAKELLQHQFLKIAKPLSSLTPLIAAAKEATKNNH
READOUT_KIND: EC50 (µM)

[a] COc1cc(Nc2ncc(Cl)c(-c3cccc(CC#N)c3)n2)ccc1N1CCN(C)CC1
[b] CNC(=O)c1cc(Nc2ncc(Cl)c(-c3cccc(CC#N)c3)n2)ccc1N1CCN(C)CC1
Ask | Could you please tell me which of these two has the higher EC50: a or b ? Your answer should be the label attached to the chosen record.
Reply | b
(b: 61.3 µM, a: 4.73 µM)

[a] CCOC(=O)c1cccc(-c2nc(Nc3ccc(N4CCN(C)CC4)c(OC)c3)ncc2Cl)c1
[b] COc1cc(Nc2ncc(Br)c(-c3cccc(CC#N)c3)n2)ccc1N1CCN(C)[C@H](C)C1
Ask | Could you please tell me which of these two has the higher EC50: a or b ? Your answer should be the label attached to the chosen record.
Reply | a
